test system: P-388; test: Inhibition of cell growth by counting cells, P-388; assay type: cell-based, mouse; conditions: Mus musculus, P388, 72 h; three days of incubation; read-out: IC50 (molar) P-388
Listing of recorded pIC50 by entry.
# pIC50 = -log10(concentration in molar units)

Request the reported pIC50 associated with COc1cc2c(cc1OC(=O)OC(C)(C)C)CCN[C@]21CS[C@@H]2c3c(OC(=O)/C=C/c4ccccc4)c(C)c4c(c3[C@H](COC1=O)N1C2[C@H]2c3c(cc(C)c(OC)c3O)C[C@@H]([C@@H]1C#N)N2C)OCO4 (stereo partly shown)
7.98

Request the reported pIC50 associated with COc1cc2c(cc1O)CCN[C@]21CS[C@@H]2c3c(OC(=O)/C=C/c4ccccc4)c(C)c4c(c3[C@H](COC1=O)N1C2[C@H]2c3c(cc(C)c(OC)c3O)C[C@@H]([C@@H]1C#N)N2C)OCO4 (stereo partly shown)
9.93

Request the reported pIC50 associated with COc1cc2c(cc1OCc1ccccc1)CCN[C@]21CS[C@@H]2c3c(OC(C)=O)c(C)c4c(c3[C@H](COC1=O)N1C2[C@H]2c3c(cc(C)c(OC)c3OCc3ccccc3)C[C@@H]([C@@H]1O)N2C)OCO4 (stereo partly shown)
6.97

Request the reported pIC50 associated with COc1cc2c(cc1OC(C)=O)CCN[C@]21CS[C@@H]2c3c(OC(C)=O)c(C)c4c(c3[C@H](COC1=O)N1C2[C@H]2c3c(cc(C)c(OC)c3O)C[C@@H]([C@@H]1C#N)N2C(=O)OC(C)(C)C)OCO4 (stereo partly shown)
8.95

---

test system: LoVo-Dox; assay: Inhibition of cells growth by colorimetric assay (SRB), LoVo-Dox; format: cell-based; details: Homo sapiens, 48 h, read-out: LOVO-DOX LC50, LOVO-DOX; SRB, 48 hours exposure
measured.attribute: CC50 (µM)
Kindly provide the numeric value in µM only, without the unit symbol.

{"compound": "COC1=C(C)C(=O)C2=C(C1=O)[C@@H]1C3[C@@H]4SC[C@]5(NCCc6cc(O)c(OC)cc65)C(=O)OC[C@@H](c5c6c(c(C)c(OC(C)=O)c54)OCO6)N3[C@@H](O)[C@H](C2)N1C (some centres unmarked)", "tested.on": "LoVo-Dox", "result.number": 12.9}

I'm curious: which CC50 was measured for COc1cc2c(cc1OC(=O)Cc1cc(=O)oc3cc(N(C)C)ccc13)CCN[C@]21CS[C@@H]2c3c(OC(C)=O)c(C)c4c(c3[C@H](COC1=O)N1C2[C@H]2c3c(cc(C)c(OC)c3OC(=O)Cc3cc(=O)oc5cc(N(C)C)ccc35)C[C@@H]([C@@H]1O)N2C)OCO4 (some centres unmarked) tested on LoVo-Dox?
10.1

---

Listing of recorded Toxicity Data Myelo by entry.
tested on: Myelo
No unit in the answer, please; the number alone is enough.

{"molecule": "COc1cc2c(cc1OC(=O)[C@H](C)NC(=O)OC(C)(C)C)CCN[C@]21CS[C@@H]2c3c(OC(C)=O)c(C)c4c(c3[C@H](COC1=O)N1C2[C@H]2c3c(cc(C)c(OC)c3O)C[C@@H]([C@@H]1O)N2C)OCO4 (stereo partly shown) [Compound 79]", "tested.on": "Myelo", "result.number": "1.35E-08"}
{"molecule": "CCCCCCCC(=O)Oc1cc2c(cc1OC)[C@@]1(CS[C@@H]3c4c(OC(C)=O)c(C)c5c(c4[C@H](COC1=O)N1C3[C@H]3c4c(cc(C)c(OC)c4O)C[C@@H]([C@@H]1O)N3C)OCO5)NCC2 (stereo partly shown) [Compound 59]", "tested.on": "Myelo", "result.number": "4.18E-08"}

Request the reported Toxicity Data Myelo associated with CCCCCCCC(=O)Oc1cc2c(cc1OC)[C@@]1(CS[C@@H]3c4c(OC(C)=O)c(C)c5c(c4[C@H](COC1=O)N1C3[C@@H]3N[C@@H](Cc4cc(C)c(OC)c(O)c43)[C@@H]1O)OCO5)NCC2 (stereo partly shown) [Compound 213]
2.70E-08

Request the reported Toxicity Data Myelo associated with COc1cc2c(cc1OC(=O)c1cc3ccccc3oc1=O)CCN[C@]21CS[C@@H]2c3c(OC(C)=O)c(C)c4c(c3[C@H](COC1=O)N1C2[C@H]2c3c(cc(C)c(OC)c3O)C[C@@H]([C@@H]1O)N2C)OCO4 (stereo partly shown) [Compound 76]
8.19E-09

Where do the numbers come from? From patent US7759345B2.
